molecular target: OsWRKY34 (Oryza sativa, UniProt Q0JBA9 1-250); assay: protein-binding microarray (RPBM); PBS, 2% BSA, 51.3 ng/ul salmon testes DNA, 50 uM zinc acetate, 200 nM TF, 25 C, 1 h; high values mean tight binding; conditions: protein: recombinant; tags: N-terminal polyhistidine and DsRed monomer fusion (pET32a); label: CyDye5-dUTP incorporated in the synthesized complementary strand; 3' TTTTT single-stranded linker to array surface; dsDNA, one strand shown
Sequence (Q0JBA9 entry or part of it): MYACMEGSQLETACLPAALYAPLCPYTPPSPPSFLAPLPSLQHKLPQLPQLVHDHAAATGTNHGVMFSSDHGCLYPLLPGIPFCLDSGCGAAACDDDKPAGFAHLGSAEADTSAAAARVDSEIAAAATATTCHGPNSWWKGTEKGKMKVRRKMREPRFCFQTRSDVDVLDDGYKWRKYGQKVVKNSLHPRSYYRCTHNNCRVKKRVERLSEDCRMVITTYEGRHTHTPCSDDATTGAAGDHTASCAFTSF
Over roughly 68,000 sequences, “fluorescence intensity (a.u.)” has its median near 9,100; the highest 2% begin near 16,000. This is one part of a sample in which the highest values are shown more often than they occur.
MEASURED_PARAMETER: binding signal

Query: Supply recorded binding signal for TGTTTGACTTTTTTCTTGGTTAAAATTCTTTAAATTTGATCGGAGTCACCTAGTGCAG here.
Response: 18900 fluorescence intensity (a.u.)

Query: Supply recorded binding signal for GCGTTACATACATCCTTATTATGTTGTTCATGTTTATAAACGGAGTCACCTAGTGCAG here.
Response: 8240 fluorescence intensity (a.u.)

Query: Supply recorded binding signal for GCATTAGAACGAGCGCACCCACTTTCAGTTCTCAAATTATCGGAGTCACCTAGTGCAG here.
Response: 8670 fluorescence intensity (a.u.)

Query: Supply recorded binding signal for CAAATGGAGGCCCCTTTTAGATACGCTTCCTGTTACTTTCCGGAGTCACCTAGTGCAG here.
Response: 8710 fluorescence intensity (a.u.)

Query: Supply recorded binding signal for GTTCATATAGTACGTACTTTTATTCGTTAGTATATATGACCGGAGTCACCTAGTGCAG here.
Response: 9410 fluorescence intensity (a.u.)

Query: Supply recorded binding signal for CCACGTAGGCGCCACGTCAGCCAAAACCGCTCTTAAAACCCGGAGTCACCTAGTGCAG here.
Response: 8110 fluorescence intensity (a.u.)

Query: Supply recorded binding signal for CGGTAGGCGTACGTGGAGACCGGTGGAATTCGTCAAAACCCGGAGTCACCTAGTGCAG here.
Response: 55000 fluorescence intensity (a.u.)

Query: Supply recorded binding signal for TTGACGCCGTTGACTTTTTAAAAAATATTTGACCGTTCTTCGGAGTCACCTAGTGCAG here.
Response: 37100 fluorescence intensity (a.u.)

Query: Supply recorded binding signal for TGTCACATTCGTCTCCGGTCCGTACGTTGCTGTATTTTAGCGGAGTCACCTAGTGCAG here.
Response: 17100 fluorescence intensity (a.u.)

Query: Supply recorded binding signal for CACTACTATCTGCCTCACCGTTAACCCTACCGAATAAATTCGGAGTCACCTAGTGCAG here.
Response: 8880 fluorescence intensity (a.u.)

Query: Supply recorded binding signal for TGGGTTTTACGGTTTTACCCTCTCGGGCTTGAGGGGAGAGCGGAGTCACCTAGTGCAG here.
Response: 47600 fluorescence intensity (a.u.)

Query: Supply recorded binding signal for ATTTATAGAGGTTGGGTGTGCATGTGTGGTGAGCATATTTCGGAGTCACCTAGTGCAG here.
Response: 8820 fluorescence intensity (a.u.)

Query: Supply recorded binding signal for GGAATTTCTCAGCTCACACGAGTCACGGACCCACCACCACCGGAGTCACCTAGTGCAG here.
Response: 8960 fluorescence intensity (a.u.)

Query: Supply recorded binding signal for CCGTTGACTTGGATTTGTTCCTTTTTCATTTTTTATCGTTCGGAGTCACCTAGTGCAG here.
Response: 14700 fluorescence intensity (a.u.)

Query: Supply recorded binding signal for TCCTGTTTAAAGTTTTTTTTTGTGATTTTTAGATAAAAAACGGAGTCACCTAGTGCAG here.
Response: 9030 fluorescence intensity (a.u.)

Query: Supply recorded binding signal for CCCATTCTTTCACTTTTGACCTTTTTTTATCATTTTGTTTCGGAGTCACCTAGTGCAG here.
Response: 9510 fluorescence intensity (a.u.)

Query: Supply recorded binding signal for GCTAGCGCTGCCGCCCTACTCTTGATCCTAAATATTCATTCGGAGTCACCTAGTGCAG here.
Response: 8210 fluorescence intensity (a.u.)

Query: Supply recorded binding signal for ATTCAACACTTTTAAAATATTTTGATTGCGGTTTCTTTTACGGAGTCACCTAGTGCAG here.
Response: 9530 fluorescence intensity (a.u.)

Query: Supply recorded binding signal for CTCCGTCACTCAGATTTAATACATGACTCTCTATTATTCCCGGAGTCACCTAGTGCAG here.
Response: 9060 fluorescence intensity (a.u.)

Query: Supply recorded binding signal for ACAGCGGTTTTGGTTGACGTAGTGCCTATGTGGCGTTGACCGGAGTCACCTAGTGCAG here.
Response: 11700 fluorescence intensity (a.u.)

Query: Supply recorded binding signal for CGTTTCAAAATATTTAACACCGTTGACTTTTTAGTACGTGCGGAGTCACCTAGTGCAG here.
Response: 31100 fluorescence intensity (a.u.)

Query: Supply recorded binding signal for CTCTCCATCCGCTCGCGGCTCGCGCTCGCCCATCCAATCCCGGAGTCACCTAGTGCAG here.
Response: 10600 fluorescence intensity (a.u.)

Query: Supply recorded binding signal for AGGTGAGAGGAGGAGAGAGACGGGTTTAGGGCTTTAGGAGCGGAGTCACCTAGTGCAG here.
Response: 8040 fluorescence intensity (a.u.)

Query: Supply recorded binding signal for CTCCATCCTAAAATGTTTGACGCCGTTGACTTTTTTAAATCGGAGTCACCTAGTGCAG here.
Response: 24500 fluorescence intensity (a.u.)

Query: Supply recorded binding signal for ACCCACTTTCGACTCCATGAATTTCATCACATTTGTTTTACGGAGTCACCTAGTGCAG here.
Response: 18600 fluorescence intensity (a.u.)

Query: Supply recorded binding signal for GGGAGCGGCGGAGGAGGAGGGCGCGGCGGCGGTGGGGTGGCGGAGTCACCTAGTGCAG here.
Response: 18100 fluorescence intensity (a.u.)

Query: Supply recorded binding signal for TCACCATCTCGACTCAGCCAATCCATTTCTAAATTTTATACGGAGTCACCTAGTGCAG here.
Response: 8690 fluorescence intensity (a.u.)

Query: Supply recorded binding signal for ACCTCTTCCTCGACGCCGCCGCCGACCACCACCCCGCCGGCGGAGTCACCTAGTGCAG here.
Response: 8670 fluorescence intensity (a.u.)

Query: Supply recorded binding signal for CCTCATCACAAAATGTTTGACGCTGTTGACTTTTTTAAAACGGAGTCACCTAGTGCAG here.
Response: 15900 fluorescence intensity (a.u.)

Query: Supply recorded binding signal for TTGGTAGAGTTGTCCGTTTGGATTTTGGCCTCCCTTTTTTCGGAGTCACCTAGTGCAG here.
Response: 8380 fluorescence intensity (a.u.)

Query: Supply recorded binding signal for AGGCCATCATCACTTTAGTCTTATTTTCGTCACCATCATCCGGAGTCACCTAGTGCAG here.
Response: 10300 fluorescence intensity (a.u.)

Query: Supply recorded binding signal for TAGAAGAGCGCGTTGACACCGTTGACTTTGGATTTTCCGTCGGAGTCACCTAGTGCAG here.
Response: 18700 fluorescence intensity (a.u.)

Query: Supply recorded binding signal for GGTCGTCGTCTTTGCATTGTCTCCTTGTCCGGTACGTTGGCGGAGTCACCTAGTGCAG here.
Response: 9400 fluorescence intensity (a.u.)

Query: Supply recorded binding signal for ATATTTGACCGTTTGTCTTTTTCAAAAACTTTTGTGAAATCGGAGTCACCTAGTGCAG here.
Response: 9920 fluorescence intensity (a.u.)

Query: Supply recorded binding signal for AAGATATTTTCAATGTATTTTTTTATTGTTGACTTTTAAACGGAGTCACCTAGTGCAG here.
Response: 9030 fluorescence intensity (a.u.)

Query: Supply recorded binding signal for GTAAATCCGCTCCAATTGACTCTACCAACCCACCCGTGCTCGGAGTCACCTAGTGCAG here.
Response: 9420 fluorescence intensity (a.u.)

Query: Supply recorded binding signal for TTTAGTACGTGTTTGACCATTCGTCTTATTAAAAAAATTTCGGAGTCACCTAGTGCAG here.
Response: 9130 fluorescence intensity (a.u.)
